- Measurement Target: ZAP-70 (Homo sapiens, UniProt P43403)
- Sequence (P43403 whole entry): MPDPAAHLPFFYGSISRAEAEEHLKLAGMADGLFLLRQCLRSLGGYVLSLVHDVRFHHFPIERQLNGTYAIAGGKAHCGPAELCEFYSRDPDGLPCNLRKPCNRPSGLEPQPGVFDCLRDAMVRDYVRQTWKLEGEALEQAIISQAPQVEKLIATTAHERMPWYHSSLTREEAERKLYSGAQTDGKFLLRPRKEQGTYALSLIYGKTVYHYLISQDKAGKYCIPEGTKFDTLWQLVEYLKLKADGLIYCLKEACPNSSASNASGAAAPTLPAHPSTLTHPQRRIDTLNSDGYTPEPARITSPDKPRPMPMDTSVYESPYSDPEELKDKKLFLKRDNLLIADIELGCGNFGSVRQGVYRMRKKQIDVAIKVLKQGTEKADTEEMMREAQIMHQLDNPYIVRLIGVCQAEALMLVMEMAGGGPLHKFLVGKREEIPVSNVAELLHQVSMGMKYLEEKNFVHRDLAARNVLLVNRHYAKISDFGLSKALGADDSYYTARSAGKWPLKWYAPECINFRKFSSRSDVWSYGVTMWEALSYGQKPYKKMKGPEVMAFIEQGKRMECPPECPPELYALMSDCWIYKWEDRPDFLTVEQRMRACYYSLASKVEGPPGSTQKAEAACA
- Assay Comment: DELFIA assay (ZAP-70 kinase, phosphorylation of biotinylated poly(glu,tyr))
- Type: biochemical
- Conditions Used: ZAP-70 DELFIA, class symbols; read-out: Activity (IC50 in vitro)
// reported IC50 per item

{"Molecule": "COc1ccc(Nc2cc(C(=O)N3CCC[C@H]3CN3CCCC3)c3cc(-c4ccc5c(c4)OCO5)ccc3n2)cc1 [Compound 15]", "Measurement Target": "ZAP-70 (Homo sapiens, UniProt P43403)", "IC50": "< 1 µM"}
{"Molecule": "O=C(c1ccnc2ccc(-c3ccc4c(c3)OCO4)cc12)N1CCC[C@H]1CN1CCCC1 [Compound 399]", "Measurement Target": "ZAP-70 (Homo sapiens, UniProt P43403)", "IC50": "> 10 µM"}
{"Molecule": "N#Cc1ccc(-c2ccc3nc(N(CCCCO)Cc4ccccc4)cc(C(=O)N4CCC[C@H]4CN4CCCC4)c3c2)cc1 [Compound 247]", "Measurement Target": "ZAP-70 (Homo sapiens, UniProt P43403)", "IC50": "> 10 µM"}
{"Molecule": "Cc1ccc(F)cc1CNc1cc(C(=O)N2CCC[C@H]2CN2CCCC2)c2cc(-c3ccc(C#N)cc3)ccc2n1 [Compound 226]", "Measurement Target": "ZAP-70 (Homo sapiens, UniProt P43403)", "IC50": "> 10 µM"}

Endpoint output: IC50 of N#Cc1ccc(-c2ccc3nc(N4CCCC(c5ccccc5F)C4)cc(C(=O)N4CCC[C@H]4CN4CCCC4)c3c2)cc1 (some centres unmarked) [Compound 267] . Value?
> 10 µM

Also N#Cc1ccc(-c2ccc3nc(N4CCCC(c5ccc(C(F)(F)F)cc5)C4)cc(C(=O)N4CCC[C@H]4CN4CCCC4)c3c2)cc1 (some centres unmarked) [Compound 266] ?
> 10 µM
